# Test system: OVCAR-3 ovarian
# PROCEDURE_SUMMARY: NCI tumour cell line growth inhibition, 48 h
RECORDED_ENDPOINT: TGI

Enquiry: // Input: "Clc1ccc(N=C2c3ccccc3CN2c2ccc(Cl)cc2)cc1" . Output its TGI only.
Return: > 100 µM

Enquiry: // Input: "CC(=O)c1ccc(Nc2cc(-n3nnc4ccccc43)nc3ccccc23)cc1" . Output its TGI only.
Return: 37.5 µM

Enquiry: // Input: "O=C1c2ccc3c4ccc5c6c(ccc(c7ccc(c2c37)C(=O)N1CCN1CCCCC1)c64)C(=O)N(CCN1CCCCC1)C5=O" . Output its TGI only.
Return: > 100 µM

Enquiry: // Input: "CCCCCCCCNC(=O)SCCCC" . Output its TGI only.
Return: > 100 µM

Enquiry: // Input: "CCCCN(CC)C(=O)C1=C(C)NC(C)=C(C(=O)N(CC)CCCC)C1" . Output its TGI only.
Return: > 100 µM
